Source: paper PMC3390916

- tested-system: growth factor receptor-bound protein 2 (Grb2), recombinant (human, UniProt P62993 1-217)
- Sequence (P62993 whole entry): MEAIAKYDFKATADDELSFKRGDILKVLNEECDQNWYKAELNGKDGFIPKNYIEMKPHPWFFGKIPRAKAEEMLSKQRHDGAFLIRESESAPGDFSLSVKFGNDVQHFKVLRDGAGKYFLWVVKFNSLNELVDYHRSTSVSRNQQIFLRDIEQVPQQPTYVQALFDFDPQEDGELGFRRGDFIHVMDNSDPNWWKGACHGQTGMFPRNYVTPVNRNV
- experiment-summary: SPR
quantity: Kd (mM)
Field: numeric (mM). Do not append units.

Quick one: Kd of YEVPPPVPPRRRGSC [SH3-binding peptide (YEVPPPVPPRRR)] ? 7.5
